Test: protein stability index of a GFP-peptide fusion (yeast GPS) (PSI 1-4); higher = more stable; sorted into four equal gates, so the index is relative within each strain
Conditions: pdr5∆
Each record here notes measured protein stability index.
Please state the value as a number alone, without comment.

Check out these entries, answers already filled in.
- SSPDTMKLTDLLSLINS [SNF12]: 2.73
- GTLWAHVLKTVDYGGAE [SNU114]: 1.32
- IELLSDLINILEKKGFS [LIN1]: 1.43
- SDKDATTDGKNDDEEEE [RPN1]: 3.33
- FILELEHKTPELISFKE [YIL149C/MLP2]: 3.05

[ask] Sample MLNLIDDVKNILNAKYT [RPN6] — what was its protein stability index?
[reply] 2.57

[ask] Lookup DTRSTQGPIVADKNCAK [PUP1]
[reply] 3.59

[ask] Next sequence: SLPFLLRHMPLASIPDI [SSN2]
[reply] 1.69

[ask] Okay, and SVLQLIVSEDHIILDTI [MED1] ?
[reply] 2.7

[ask] Queued: LRQLASYYSREQDALFI [RPN1]
[reply] 1.8

[ask] Here is the next sequence: NENRNTGAGVDVNTNAN [SNF11]
[reply] 3.42

[ask] Further, for SNIEQTESLRVENSVLI [YIL149C/MLP2] ?
[reply] 3.09

[ask] Can you handle SSTKDYLTPPHECRLRD [RET1] next?
[reply] 3.22

[ask] Now try LKNCKISNINIPISSET [SMC1] .
[reply] 2.95
